- details: in ethanol, 322.15 K
observed property: solubility (mole fraction)

Record summary for "Brc1sc(Br)c(Br)c1Br" : reported solubility (mole fraction) = 0.00501

* * *

- details: in ethanol, 318.15 K
observed property: solubility (mole fraction)
// return just the number, without any unit appended

Record summary for "Brc1sc(Br)c(Br)c1Br" : reported solubility (mole fraction) = 0.00442

* * *

- details: in THF, 310.15 K
observed property: solubility (mole fraction)
// return just the number, without any unit appended

Record summary for "Brc1sc(Br)c(Br)c1Br" : reported solubility (mole fraction) = 0.0719

* * *

- details: in ethanol, 282.15 K
observed property: solubility (mole fraction)
// return just the number, without any unit appended

Record summary for "Brc1sc(Br)c(Br)c1Br" : reported solubility (mole fraction) = 0.00134

* * *

- details: in THF, 282.15 K
observed property: solubility (mole fraction)
// return just the number, without any unit appended

Record summary for "Brc1sc(Br)c(Br)c1Br" : reported solubility (mole fraction) = 0.043

* * *

- details: in THF, 318.15 K
observed property: solubility (mole fraction)
// return just the number, without any unit appended

Record summary for "Brc1sc(Br)c(Br)c1Br" : reported solubility (mole fraction) = 0.082

* * *

- details: in THF, 302.15 K
observed property: solubility (mole fraction)

Record summary for "Brc1sc(Br)c(Br)c1Br" : reported solubility (mole fraction) = 0.0627

* * *

- details: in THF, 294.15 K
observed property: solubility (mole fraction)
// return just the number, without any unit appended

Record summary for "Brc1sc(Br)c(Br)c1Br" : reported solubility (mole fraction) = 0.0539

* * *

- details: in THF, 298.15 K
observed property: solubility (mole fraction)
// return just the number, without any unit appended

Record summary for "Brc1sc(Br)c(Br)c1Br" : reported solubility (mole fraction) = 0.0581

* * *

- details: in ethanol, 314.15 K
observed property: solubility (mole fraction)
// return just the number, without any unit appended

Record summary for "Brc1sc(Br)c(Br)c1Br" : reported solubility (mole fraction) = 0.00389

* * *

- details: in ethanol, 298.15 K
observed property: solubility (mole fraction)

Record summary for "Brc1sc(Br)c(Br)c1Br" : reported solubility (mole fraction) = 0.00241

* * *

- details: in THF, 290.15 K
observed property: solubility (mole fraction)
// return just the number, without any unit appended

Record summary for "Brc1sc(Br)c(Br)c1Br" : reported solubility (mole fraction) = 0.05

* * *

- details: in ethanol, 290.15 K
observed property: solubility (mole fraction)
// return just the number, without any unit appended

Record summary for "Brc1sc(Br)c(Br)c1Br" : reported solubility (mole fraction) = 0.00181

* * *

- details: in ethanol, 306.15 K
observed property: solubility (mole fraction)
// return just the number, without any unit appended

Record summary for "Brc1sc(Br)c(Br)c1Br" : reported solubility (mole fraction) = 0.00305
